measured_target: PCP receptors
method: Scatchard analysis of [3H]TCP binding after treatment with affinity ligand
Design: species or system rat
test_context: control tissue, [3H]-TCP 1.0 to 150 nM; read-out: Kd for control ([3H]-TCP)
observed_property: Kd (nM)

INSERT INTO results (compound, measured_target, observed_property, result_units, observed_measurement) VALUES
  ('c1csc(C2(N3CCCCC3)CCCCC2)c1 [[3H]-TCP]', 'PCP receptors', 'Kd', 'nM', 15);

* * *

measured_target: phencyclidine receptors ([3H]PCP binding site)
Set-up: species or system rat
test_context: read-out: apparent IC50
observed_property: IC50 (nM)

INSERT INTO measurements (structure_as_smiles, observed_measurement) VALUES
  ('c1ccc(C2(N3CCCCC3)CCCCC2)cc1', 150),
  ('CCNC1(c2ccccc2)CCCCC1', 240),
  ('CC(C)NC1(c2ccccc2)CCCCC1', 50);
